experimental.target: SARS-CoV-2 spike RBD-His (SARS-CoV-2, UniProt P0DTC2)
assay.remarks: SPR
cond: both partners purified
endpoint.name: Kd

Exam item: # Kd lookup, item S-plug (designed binder, also called prototype S-plug) STIEEQAKTFLDKFNHEAEDLFYQSSLASWNYNTNITEENVQNMNNAGDKWSAFLKEQSTLAQMYPLQEIQNQTVKQQLQALQQN
Marked response: 50 to 200 nM
